# target system: PI3-Kα (Mus musculus (Mouse))
# Sequence (P42337 whole entry, the tested form may be a part): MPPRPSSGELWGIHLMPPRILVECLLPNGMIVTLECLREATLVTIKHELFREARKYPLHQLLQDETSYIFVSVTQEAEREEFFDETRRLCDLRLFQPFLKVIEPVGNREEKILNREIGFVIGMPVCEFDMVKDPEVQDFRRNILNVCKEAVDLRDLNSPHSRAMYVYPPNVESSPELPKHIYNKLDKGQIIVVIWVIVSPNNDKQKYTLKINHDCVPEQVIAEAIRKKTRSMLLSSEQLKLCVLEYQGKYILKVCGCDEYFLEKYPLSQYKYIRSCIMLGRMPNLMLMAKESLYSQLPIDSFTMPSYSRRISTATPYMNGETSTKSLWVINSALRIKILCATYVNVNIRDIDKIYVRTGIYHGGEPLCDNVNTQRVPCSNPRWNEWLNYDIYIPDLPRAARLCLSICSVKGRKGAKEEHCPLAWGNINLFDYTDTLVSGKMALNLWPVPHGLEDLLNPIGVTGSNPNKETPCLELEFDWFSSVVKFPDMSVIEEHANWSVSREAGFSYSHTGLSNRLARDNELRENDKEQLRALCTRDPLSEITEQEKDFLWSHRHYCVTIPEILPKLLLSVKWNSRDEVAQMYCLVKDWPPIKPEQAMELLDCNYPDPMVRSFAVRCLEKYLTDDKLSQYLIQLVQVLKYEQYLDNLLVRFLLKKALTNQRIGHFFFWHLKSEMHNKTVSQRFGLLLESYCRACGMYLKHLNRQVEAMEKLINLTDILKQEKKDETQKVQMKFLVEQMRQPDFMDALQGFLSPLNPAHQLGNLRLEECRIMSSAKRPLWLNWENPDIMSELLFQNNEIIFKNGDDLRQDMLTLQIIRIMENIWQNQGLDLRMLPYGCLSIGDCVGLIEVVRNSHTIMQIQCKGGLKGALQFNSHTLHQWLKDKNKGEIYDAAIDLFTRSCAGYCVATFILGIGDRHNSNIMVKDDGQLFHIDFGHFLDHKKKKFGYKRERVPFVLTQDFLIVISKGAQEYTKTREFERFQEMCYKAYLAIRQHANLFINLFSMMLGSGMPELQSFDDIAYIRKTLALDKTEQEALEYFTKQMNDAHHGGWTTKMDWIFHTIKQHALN
# Sequence (P26450 whole entry partner, the tested form may be a part): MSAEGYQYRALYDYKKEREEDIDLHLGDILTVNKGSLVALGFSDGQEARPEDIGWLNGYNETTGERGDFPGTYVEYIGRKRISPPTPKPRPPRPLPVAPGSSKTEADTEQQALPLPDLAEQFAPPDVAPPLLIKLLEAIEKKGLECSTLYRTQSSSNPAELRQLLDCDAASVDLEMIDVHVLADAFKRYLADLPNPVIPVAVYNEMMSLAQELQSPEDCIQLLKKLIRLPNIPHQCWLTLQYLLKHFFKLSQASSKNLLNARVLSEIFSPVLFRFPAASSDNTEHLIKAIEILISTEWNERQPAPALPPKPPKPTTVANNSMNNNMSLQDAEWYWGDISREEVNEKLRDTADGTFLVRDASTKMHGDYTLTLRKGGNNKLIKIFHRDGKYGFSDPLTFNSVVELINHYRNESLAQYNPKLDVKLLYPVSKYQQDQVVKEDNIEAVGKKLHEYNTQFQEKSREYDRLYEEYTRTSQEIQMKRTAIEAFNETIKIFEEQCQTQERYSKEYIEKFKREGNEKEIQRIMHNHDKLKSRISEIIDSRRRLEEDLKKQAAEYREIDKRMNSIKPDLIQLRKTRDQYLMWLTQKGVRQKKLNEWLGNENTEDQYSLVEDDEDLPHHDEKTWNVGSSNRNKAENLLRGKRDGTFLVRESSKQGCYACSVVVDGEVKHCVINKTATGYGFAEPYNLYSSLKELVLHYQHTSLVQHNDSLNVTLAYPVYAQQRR
# experimental protocol: PI3-Kα biochemical assay (in vitro kinase assay, fluorescence polarization);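 note: Insect-cell-expressed mouse p110/p85 complex converting PI(4,5)P2, product PI(3,4,5)P3 detected by displacing TAMRA-tagged PI(3,4,5)P3 from Grip1 PH domain, lower polarization means more product, room temperature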
# setup conditions: Ki calculated from IC50, [ATP]=30 uM, Km=25 uM
Recorded PI3Ka Ki values for a group of compounds are listed next.
Express your answer in nM, writing the number without its unit.

Before answering, review these 5 worked examples.
COc1ncc(-c2ccc3ncc4c(c3n2)n(C2CCOCC2)c(=O)n4C)cn1 [Compound 201] :: 8.96
Cn1c(=O)n(C2CCN(C(=O)CO)CC2)c2c3nc(-c4ccnc5[nH]ncc45)ccc3ncc21 [Compound 252] :: 0.832
CNC(=O)Nc1ccc(-c2ccc3ncc4c(c3n2)n(C2CCN(C(=O)[C@H](C)O)CC2)c(=O)n4C)cc1 [Compound 244] :: 1.94
Cn1c(=O)n([C@H]2CC[C@H](O)CC2)c2c3nc(-c4cn[nH]c4)ccc3ncc21 [Compound 168] :: 4.17
COc1ccc(-c2ccc3ncc4c(c3n2)n(C2CCN(CC(N)=O)CC2)c(=O)n4C)cn1 [Compound 139] :: 0.339

[ask] Quickly give me recorded PI3Ka Ki for COc1ccc(-c2ccc3ncc4c(c3n2)n([C@H](C)CO)c(=O)n4C)cn1 [Compound 233]
[reply] 8.94

[ask] Quickly give me recorded PI3Ka Ki for Cc1ccc(-c2ccc3ncc4c(c3n2)n([C@H]2CC[C@H](O)CC2)c(=O)n4C)cn1 [Compound 179]
[reply] 1.03

[ask] Quickly give me recorded PI3Ka Ki for COCC(=O)N1CCC(n2c(=O)n(C)c3cnc4ccc(-c5cnc6[nH]ncc6c5)nc4c32)CC1 [Compound 260]
[reply] 0.167

[ask] Quickly give me recorded PI3Ka Ki for CC(=O)N1CCC(n2c(=O)n(C)c3cnc4ccc(-c5ccnc6[nH]ncc56)nc4c32)CC1 [Compound 251]
[reply] 0.811

[ask] Quickly give me recorded PI3Ka Ki for CC(=O)N1CCC(n2c(=O)n(C)c3cnc4ccc(-c5ccc(N)nc5)nc4c32)CC1 [Compound 242]
[reply] 0.252

[ask] Quickly give me recorded PI3Ka Ki for CN(C)c1ccc(-c2ccc3ncc4c(c3n2)n(C2CCN(C(=O)C(C)(C)C)CC2)c(=O)n4C)cn1 [Compound 205]
[reply] 0.281

[ask] Quickly give me recorded PI3Ka Ki for C[C@H](CO)n1c(=O)n(C)c2cnc3ccc(-c4cnc(N)nc4)nc3c21 [Compound 235]
[reply] 15.5

[ask] Quickly give me recorded PI3Ka Ki for Cn1c(=O)n(C2CCN(CC(F)(F)F)CC2)c2c3nc(-c4cnc5ccccc5c4)ccc3ncc21 [Compound 141]
[reply] 20.5

[ask] Quickly give me recorded PI3Ka Ki for COc1ncc(-c2ccc3ncc4c(c3n2)n(C2CCNCC2)c(=O)n4C)cn1 [Compound 188]
[reply] 8.15

[ask] Quickly give me recorded PI3Ka Ki for Cn1c(=O)n(C2CCN(C(=O)C(C)(C)O)CC2)c2c3nc(-c4cnc5ccccc5c4)ccc3ncc21 [Compound 143]
[reply] 0.568

[ask] Quickly give me recorded PI3Ka Ki for Cn1c(=O)n([C@H]2CC[C@H](O)CC2)c2c3nc(-c4cnc5[nH]ncc5c4)ccc3ncc21 [Compound 268]
[reply] 0.366

[ask] Quickly give me recorded PI3Ka Ki for CC(=O)N1CCC(n2c(=O)n(C)c3cnc4ccc(-c5cccc(-n6cccn6)c5)nc4c32)CC1 [Compound 247]
[reply] 17.6

[ask] Quickly give me recorded PI3Ka Ki for CN(C)c1ccc(-c2ccc3ncc4c(c3n2)n(C2CCN(CC(F)(F)F)CC2)c(=O)n4C)cn1 [Compound 150]
[reply] 8.78

[ask] Quickly give me recorded PI3Ka Ki for COc1ncc(-c2ccc3ncc4c(c3n2)n(C2CCN(C)CC2)c(=O)n4C)cn1 [Compound 182]
[reply] 27.5

[ask] Quickly give me recorded PI3Ka Ki for Cc1ccc(-c2ccc3ncc4c(c3n2)n(C2CCN(CC(N)=O)CC2)c(=O)n4C)cn1 [Compound 176]
[reply] 0.882

[ask] Quickly give me recorded PI3Ka Ki for COCCN1CCC(n2c(=O)n(C)c3cnc4ccc(-c5ccc(N(C)C)nc5)nc4c32)CC1 [Compound 206]
[reply] 0.802

[ask] Quickly give me recorded PI3Ka Ki for N[C@H]1CC[C@H](n2c(=O)[nH]c3cnc4ccc(-c5cnc6ccccc6c5)nc4c32)CC1 [Compound 192]
[reply] 2.21
